// IC50 lookup, one value per entry
system: L‐929 mouse fibroblast cell line; experiment: MTT cell viability assay, L‐929 control fibroblasts; format: cell-based; conditions: Mus musculus, L929, 24 h, L‐929, 24 h

molecule | IC50 (µM)
CCc1cccc2c3c([nH]c12)C(CC)(Cc1n[nH]c(=S)n1Cc1ccccc1)OCC3 (stereo not shown) | 38
CCc1cccc2c3c([nH]c12)C(CC)(CC(=O)O)OCC3 (stereo not shown) [Etodolac, reference compound] | 735
CCc1cccc2c3c([nH]c12)C(CC)(CC(=O)N/N=C/c1ccc(OC)cc1)OCC3 (racemic) | 71
CCc1cccc2c3c([nH]c12)C(CC)(CC(=O)NN1C(=O)CSC1c1c(F)cccc1F)OCC3 (stereo not shown) | 72

###

tested on: MCF‐7, MDA‐MB‐231, and L‐929; assay: MTT cell viability assay, statements over all cell lines; type: cell-based; details: read-out: IC50 range
parameter: IC50

compound | parameter | measurement
CCc1cccc2c3c([nH]c12)C(CC)(CC(=O)O)OCC3 (stereo not shown) [Etodolac, reference compound] | IC50 | 500 to 1000 µM

###

system: MDA‐MB‐231; assay: MTT cell viability assay, MDA‐MB‐231; assay type: cell-based, human; conditions: Homo sapiens, MDA-MB-231, 48 h, MDA‐MB‐231, 48 h, MTT

molecule | readout unit | IC50
CCc1cccc2c3c([nH]c12)C(CC)(CC(=O)NN1C(=O)CSC1c1c(F)cccc1F)OCC3 (stereo not shown) | µM | 13.8
CCc1cccc2c3c([nH]c12)C(CC)(CC(=O)N/N=C/c1ccc(OC)cc1)OCC3 (racemic) | µM | 38
CCc1cccc2c3c([nH]c12)C(CC)(CC(=O)O)OCC3 (stereo not shown) [Etodolac, reference compound] | µM | 699
CCc1cccc2c3c([nH]c12)C(CC)(Cc1n[nH]c(=S)n1Cc1ccccc1)OCC3 (stereo not shown) | µM | 24
